- TEST: total protein half-life in vivo (active degradation + dilution); higher = more stable protein
- TEST CONTEXT: wild type E. coli NCM3722; growth: C-lim chemostat; doubling time 6 h
READOUT TYPE: total protein half-life in vivo (h)

CHAIN	MEASUREMENT
MAKSLFRALVALSFLAPLWLNAAPRVITLSPANTELAFAAGITPVGVSSYSDYPPQAQKIEQVSTWQGMNLERIVALKPDLVIAWRGGNAERQVDQLASLGIKVMWVDATSIEQIANALRQLAPWSPQPDKAEQAAQSLLDQYAQLKAQYADKPKKRVFLQFGINPPFTSGKESIQNQVLEVCGGENIFKDSRVPWPQVSREQVLARSPQAIVITGGPDQIPKIKQYWGEQLKIPVIPLTSDWFERASPRIILAAQQLCNALSQVD	6.08
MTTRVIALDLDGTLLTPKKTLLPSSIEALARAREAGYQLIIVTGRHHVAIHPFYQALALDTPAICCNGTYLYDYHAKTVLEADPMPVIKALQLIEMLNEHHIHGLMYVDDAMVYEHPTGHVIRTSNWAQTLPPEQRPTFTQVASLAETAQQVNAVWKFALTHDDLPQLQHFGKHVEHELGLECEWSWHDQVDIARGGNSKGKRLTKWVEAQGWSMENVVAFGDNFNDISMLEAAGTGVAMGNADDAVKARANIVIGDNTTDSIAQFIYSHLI	3.48
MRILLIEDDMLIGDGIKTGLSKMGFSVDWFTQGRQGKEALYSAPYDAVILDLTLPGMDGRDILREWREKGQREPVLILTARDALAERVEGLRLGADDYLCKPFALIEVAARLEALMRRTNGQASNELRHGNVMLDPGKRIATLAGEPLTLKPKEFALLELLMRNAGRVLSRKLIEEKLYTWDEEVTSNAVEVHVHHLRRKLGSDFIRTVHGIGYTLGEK	5.51
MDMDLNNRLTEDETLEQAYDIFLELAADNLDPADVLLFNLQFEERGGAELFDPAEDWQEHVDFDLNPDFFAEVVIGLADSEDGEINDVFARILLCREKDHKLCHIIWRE [P0A8L7]	5.72
MNAYELQALRHIFAMTIDECATWIAQTGDSESWRQWENGKCAIPDRVVEQLLAMRQQRKKHLHAIIEKINNRIGNNTMRFFPDLTAFQRVYPDGNFIDWKIYQSVAAELYAHDLERLC	3.14
MSEKVVFSQLSRKFIDENDATPAEAQQVVYYSLAIGHHLGVIDCLEAALTCPWDEYLAWIATLEAGSEARRKMEGVPKYGEIVIDINHVPMLANAFDKARAAQTSQQQEWSTMLLSMLHDIHQENAIYLMVRRLRD [P0AEV7]	3.73
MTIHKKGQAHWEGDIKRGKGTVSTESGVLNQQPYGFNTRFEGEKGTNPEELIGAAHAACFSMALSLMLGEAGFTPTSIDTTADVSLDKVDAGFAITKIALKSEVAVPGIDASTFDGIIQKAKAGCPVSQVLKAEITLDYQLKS [P0C0L2]	6.63
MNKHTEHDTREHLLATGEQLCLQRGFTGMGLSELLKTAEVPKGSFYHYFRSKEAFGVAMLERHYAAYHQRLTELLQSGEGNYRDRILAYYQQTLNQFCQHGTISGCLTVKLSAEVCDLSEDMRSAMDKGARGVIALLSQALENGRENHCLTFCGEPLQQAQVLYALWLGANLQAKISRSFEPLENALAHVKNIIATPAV	5.91

###

- TEST: total protein half-life in vivo (active degradation + dilution); higher = more stable protein
- TEST CONTEXT: E. coli NCM3722 delta-lon; growth: N-lim chemostat; doubling time 6 h
READOUT TYPE: total protein half-life in vivo (h)

CHAIN	MEASUREMENT
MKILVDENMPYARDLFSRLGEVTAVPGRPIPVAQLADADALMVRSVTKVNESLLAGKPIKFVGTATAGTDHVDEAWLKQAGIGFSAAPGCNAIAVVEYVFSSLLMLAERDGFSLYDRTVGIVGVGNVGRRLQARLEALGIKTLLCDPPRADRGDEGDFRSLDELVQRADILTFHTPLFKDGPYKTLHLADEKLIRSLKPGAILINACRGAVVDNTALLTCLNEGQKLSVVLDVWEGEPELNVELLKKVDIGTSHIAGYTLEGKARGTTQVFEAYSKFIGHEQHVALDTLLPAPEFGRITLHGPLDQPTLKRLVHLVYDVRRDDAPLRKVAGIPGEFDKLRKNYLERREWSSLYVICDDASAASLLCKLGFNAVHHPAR	5.42
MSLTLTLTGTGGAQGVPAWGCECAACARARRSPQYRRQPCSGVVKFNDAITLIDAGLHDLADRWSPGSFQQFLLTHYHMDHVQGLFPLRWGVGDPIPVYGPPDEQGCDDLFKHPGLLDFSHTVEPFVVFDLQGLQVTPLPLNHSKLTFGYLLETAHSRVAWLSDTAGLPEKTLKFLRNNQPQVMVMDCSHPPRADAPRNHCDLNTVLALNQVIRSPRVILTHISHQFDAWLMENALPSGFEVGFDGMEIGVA	4.56
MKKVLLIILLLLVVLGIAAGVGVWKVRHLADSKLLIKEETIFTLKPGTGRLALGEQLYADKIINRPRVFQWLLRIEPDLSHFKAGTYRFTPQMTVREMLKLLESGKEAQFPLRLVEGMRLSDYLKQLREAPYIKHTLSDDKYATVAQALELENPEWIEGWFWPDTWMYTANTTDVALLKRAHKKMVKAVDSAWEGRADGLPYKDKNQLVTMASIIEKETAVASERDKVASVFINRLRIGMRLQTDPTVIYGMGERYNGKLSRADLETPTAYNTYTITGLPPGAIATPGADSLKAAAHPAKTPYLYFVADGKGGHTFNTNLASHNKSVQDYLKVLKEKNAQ	6.58
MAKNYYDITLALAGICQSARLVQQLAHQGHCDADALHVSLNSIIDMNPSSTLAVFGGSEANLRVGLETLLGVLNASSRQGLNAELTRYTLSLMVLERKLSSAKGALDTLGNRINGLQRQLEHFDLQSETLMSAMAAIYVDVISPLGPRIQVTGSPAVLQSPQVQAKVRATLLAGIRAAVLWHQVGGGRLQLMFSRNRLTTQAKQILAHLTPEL	5.23
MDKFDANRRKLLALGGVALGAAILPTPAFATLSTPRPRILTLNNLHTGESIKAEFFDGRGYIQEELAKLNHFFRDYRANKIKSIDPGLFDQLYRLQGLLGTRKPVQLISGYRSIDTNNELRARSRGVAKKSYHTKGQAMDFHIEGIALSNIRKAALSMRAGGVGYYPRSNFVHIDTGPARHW [P0AB06]	1
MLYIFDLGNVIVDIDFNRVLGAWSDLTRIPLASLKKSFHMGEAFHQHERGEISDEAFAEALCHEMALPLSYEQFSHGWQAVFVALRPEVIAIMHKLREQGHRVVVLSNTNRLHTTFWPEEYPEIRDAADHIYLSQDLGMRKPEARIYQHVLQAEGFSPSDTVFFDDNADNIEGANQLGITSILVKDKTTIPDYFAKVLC [P0A8Y3]	5
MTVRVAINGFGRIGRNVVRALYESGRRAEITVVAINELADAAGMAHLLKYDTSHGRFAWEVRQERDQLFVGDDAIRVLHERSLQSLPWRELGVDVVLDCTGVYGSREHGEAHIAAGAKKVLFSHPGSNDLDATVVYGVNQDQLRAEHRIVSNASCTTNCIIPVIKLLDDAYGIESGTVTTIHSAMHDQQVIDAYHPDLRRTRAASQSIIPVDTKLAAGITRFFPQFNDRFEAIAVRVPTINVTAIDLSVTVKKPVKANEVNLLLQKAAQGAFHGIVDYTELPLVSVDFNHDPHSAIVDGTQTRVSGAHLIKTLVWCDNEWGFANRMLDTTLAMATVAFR [P0A9B6]	4.77
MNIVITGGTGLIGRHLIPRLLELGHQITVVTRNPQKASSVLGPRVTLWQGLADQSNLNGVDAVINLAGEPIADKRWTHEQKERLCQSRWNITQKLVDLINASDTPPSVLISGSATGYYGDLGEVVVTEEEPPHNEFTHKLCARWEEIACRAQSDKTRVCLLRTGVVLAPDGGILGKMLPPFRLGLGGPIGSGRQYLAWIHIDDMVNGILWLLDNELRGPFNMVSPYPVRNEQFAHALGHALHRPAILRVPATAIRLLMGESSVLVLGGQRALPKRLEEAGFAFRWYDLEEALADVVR	5.86
MGKLTLLLLAILVWLQYSLWFGKNGIHDYTRVNDDVAAQQATNAKLKARNDQLFAEIDDLNGGQEALEERARNELSMTRPGETFYRLVPDASKRAQSAGQNNR [P0A6S5]	4.37
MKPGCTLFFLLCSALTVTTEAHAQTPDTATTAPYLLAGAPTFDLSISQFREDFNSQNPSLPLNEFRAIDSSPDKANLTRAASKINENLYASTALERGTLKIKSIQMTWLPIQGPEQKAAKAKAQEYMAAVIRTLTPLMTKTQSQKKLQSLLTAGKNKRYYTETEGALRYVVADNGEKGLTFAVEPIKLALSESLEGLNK	5.38
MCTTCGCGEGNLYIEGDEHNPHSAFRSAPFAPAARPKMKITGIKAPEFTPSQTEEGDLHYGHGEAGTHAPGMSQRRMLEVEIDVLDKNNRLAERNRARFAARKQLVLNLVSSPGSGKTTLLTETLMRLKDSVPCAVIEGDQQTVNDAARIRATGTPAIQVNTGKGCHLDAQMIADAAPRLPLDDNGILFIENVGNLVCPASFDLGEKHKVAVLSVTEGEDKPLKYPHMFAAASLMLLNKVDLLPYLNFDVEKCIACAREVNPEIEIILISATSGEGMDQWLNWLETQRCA [P0AAN3]	3.48
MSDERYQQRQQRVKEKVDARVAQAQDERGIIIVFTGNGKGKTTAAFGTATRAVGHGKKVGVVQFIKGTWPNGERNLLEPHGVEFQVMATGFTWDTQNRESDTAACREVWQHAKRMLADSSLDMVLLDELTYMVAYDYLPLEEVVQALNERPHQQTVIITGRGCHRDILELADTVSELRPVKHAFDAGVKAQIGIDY [P0A9H5]	5.29

Data credit: the supplement of paper PMC11246515
